- Tested on: HBV rcDNA
- PROTOCOL DETAILS: Dual agent combination in HepDE19 cells, rcDNA by Quantigene 2.0 bDNA assay (Examples 5-8)
- Assay type: cell-based, HBV; HepDE19 (HepG2 human hepatocarcinoma derived)
- PARTICULARS: Hepatitis B virus, HepDE19; combination studies with Cmpd 1; read-out: Avg. Inhibitor B EC50
Give EC50 for every item shown.
Give bare numbers, in nM.

C=C1[C@H](CO)[C@@H](O)C[C@@H]1n1cnc2c(=O)[nH]c(N)nc21    1

# assay system HBV rcDNA: give EC50 of CC(C)OC(=O)OCOP(=O)(CO[C@H](C)Cn1cnc2c(N)ncnc21)OCOC(=O)OC(C)C.O=C(O)/C=C/C(=O)O [TDF, tenofovir disoproxil fumarate, reference compound]
64

---

- Tested on: HBV rcDNA
- PROTOCOL DETAILS: Dual agent combination in HepDE19 cells, rcDNA by Quantigene 2.0 bDNA assay (Examples 5-8)
- Format: cell-based, HBV; HepDE19 (HepG2 human hepatocarcinoma derived)
- PARTICULARS: Hepatitis B virus, HepDE19, Cmpd 1 in combination study with TDF; n = 3; read-out: Avg. Inhibitor A EC50
TEST READOUT: pEC50
Answers are plain numbers, as −log10 of the molar value.

Could you please provide reported pEC50 for Cn1cnc(COC(=O)N[C@H]2CCc3c(C(=O)Nc4ccc(F)c(Cl)c4)ccc(F)c32)n1 [Compound 1] ? Thanks!
7.10

---

- Tested on: HBV DNA
- PROTOCOL DETAILS: HBV DNA by branched DNA assay in HepG2.2.15 cells, two-compound combinations (Examples 13-14)
- Format: cell-based, HBV; HepG2.2.15 (human hepatoblastoma)
- PARTICULARS: Hepatitis B virus, HepG2.2.15, HepG2.2.15, bDNA quantitation; study with TAF as Inhibitor A; read-out: Inhibitor B EC50
TEST READOUT: pEC50
Numbers only, as −log10 of the molar value.

# assay system HBV DNA: give pEC50 of COCCCOc1cc2c(nc1OC)-c1cc(=O)c(C(=O)O)cn1[C@H](C(C)C)C2
9.22

---

- Test system: HBsAg
- PROTOCOL DETAILS: HBsAg in culture supernatants of HBV-infected PHH by ELISA (Examples 15-17)
- PARTICULARS: Hepatitis B virus
Give EC50 for every item shown.

C=C1[C@H](CO)[C@@H](O)C[C@@H]1n1cnc2c(=O)[nH]c(N)nc21    > 0.07 nM

Could you please provide reported EC50 for CC(C)OC(=O)OCOP(=O)(CO[C@H](C)Cn1cnc2c(N)ncnc21)OCOC(=O)OC(C)C.O=C(O)/C=C/C(=O)O [TDF, tenofovir disoproxil fumarate, reference compound] ? Thanks!
> 10 nM

---

- System: HBV rcDNA
- PROTOCOL DETAILS: Dual agent combination in HepDE19 cells, rcDNA by Quantigene 2.0 bDNA assay (Examples 5-8)
- Assay type: cell-based, HBV; HepDE19 (HepG2 human hepatocarcinoma derived)
- PARTICULARS: Hepatitis B virus, HepDE19, read-out: Avg. Inhibitor B EC50
TEST READOUT: pEC50
Give bare numbers, as −log10 of the molar value.

Could you please provide reported pEC50 for CC(C)OC(=O)[C@H](C)N[P@](=O)(CO[C@H](C)Cn1cnc2c(N)ncnc21)Oc1ccccc1 [TAF, tenofovir alafenamide] ? Thanks!
7.36

---

- System: HBV rcDNA
- PROTOCOL DETAILS: Dual agent combination in HepDE19 cells, rcDNA by Quantigene 2.0 bDNA assay (Examples 5-8)
- Format: cell-based, HBV; HepDE19 (HepG2 human hepatocarcinoma derived)
- PARTICULARS: Hepatitis B virus, HepDE19, Cmpd 1 in combination study with TAF; n = 4; read-out: Avg. Inhibitor A EC50
TEST READOUT: EC50
Param answer (str): number followed by unit.

Could you please provide reported EC50 for Cn1cnc(COC(=O)N[C@H]2CCc3c(C(=O)Nc4ccc(F)c(Cl)c4)ccc(F)c32)n1 [Compound 1] ? Thanks!
74 nM

---

Give pIC50 for every item shown.
- System: HBV genome
- PROTOCOL DETAILS: IC 50 of HBV siRNA duplexes (Table A)
- Design: species or system Hepatitis B virus
- PARTICULARS: siRNA duplex
Numbers only, as −log10 of the molar value.

11m: "double stranded siRNA molecules selected from the group consisting of 1m, 2m, 3m ... 15m" (sense GCCGAUCCAUACUGCGGAAUU; antisense UUCGGCUAGGUAUGACGCCUU; chemistry not fully specified; one strand is listed 3' to 5') [Compound 11m]    9.51
9m: "double stranded siRNA molecules selected from the group consisting of 1m, 2m, 3m ... 15m" (sense AGGUAUGUUGCCCGUUUGUUU; antisense UUUCCAUACAACGGGCAAACA; chemistry not fully specified; one strand is listed 3' to 5') [Compound 9m]    9.89
3m: "double stranded siRNA molecules selected from the group consisting of 1m, 2m, 3m ... 15m" (sense CCGUGUGCACUUCGCUUCAUU; antisense UUGGCACACGUGAAGCGAAGU; chemistry not fully specified) [Compound 3m]    10.22
8m: "double stranded siRNA molecules selected from the group consisting of 1m, 2m, 3m ... 15m" (sense GCUCAGUUUACUAGUGCCAUU; antisense UUCGAGUCAAAUGAUCACGGU; chemistry not fully specified; one strand is listed 3' to 5') [Compound 8m]    9.62
1m: "double stranded siRNA molecules selected from the group consisting of 1m, 2m, 3m ... 15m" (sense AGGUAUGUUGCCCGUUUGUUU; antisense UUUCCAUACAACGGGCAAACA; chemistry not fully specified; one strand is listed 3' to 5') [Compound 1m]    8.84
14m: "double stranded siRNA molecules selected from the group consisting of 1m, 2m, 3m ... 15m" (sense GCUCAGUUUACUAGUGCCAUU; antisense UUCGAGUCAAAUGAUCACGGU; chemistry not fully specified; one strand is listed 3' to 5') [Compound 14m]    9.80
13m: "double stranded siRNA molecules selected from the group consisting of 1m, 2m, 3m ... 15m" (sense GCCGAUCCAUACUGCGGAAUU; antisense UUCGGCUAGGUAUGACGCCUU; chemistry not fully specified; one strand is listed 3' to 5') [Compound 13m]    9.70
5m: "double stranded siRNA molecules selected from the group consisting of 1m, 2m, 3m ... 15m" (sense CCGUGUGCACUUCGCUUCAUU; antisense UUGGCACACGUGAAGCGAAGU; chemistry not fully specified) [Compound 5m]    10.22
4m: "double stranded siRNA molecules selected from the group consisting of 1m, 2m, 3m ... 15m" (sense GCUCAGUUUACUAGUGCCAUU; antisense UUCGAGUCAAAUGAUCACGGU; chemistry not fully specified; one strand is listed 3' to 5') [Compound 4m]    9.51
6m: "double stranded siRNA molecules selected from the group consisting of 1m, 2m, 3m ... 15m" (sense CUGGCUCAGUUUACUAGUGUU; antisense UUGACCGAGUCAAAUGAUCAC; chemistry not fully specified; one strand is listed 3' to 5') [Compound 6m]    10.30

Dear colleague, could you send me pIC50 for each of the items below? Thanks.
1. 10m: "double stranded siRNA molecules selected from the group consisting of 1m, 2m, 3m ... 15m" (sense GCCGAUCCAUACUGCGGAAUU; antisense UUCGGCUAGGUAUGACGCCUU; chemistry not fully specified; one strand is listed 3' to 5') [Compound 10m]
2. 12m: "double stranded siRNA molecules selected from the group consisting of 1m, 2m, 3m ... 15m" (sense GCCGAUCCAUACUGCGGAAUU; antisense UUCGGCUAGGUAUGACGCCUU; chemistry not fully specified; one strand is listed 3' to 5') [Compound 12m]
3. 2m: "double stranded siRNA molecules selected from the group consisting of 1m, 2m, 3m ... 15m" (sense GCUCAGUUUACUAGUGCCAUU; antisense UUCGAGUCAAAUGAUCACGGU; chemistry not fully specified; one strand is listed 3' to 5') [Compound 2m]

9.47
9.80
9.43
